The measured values listed here are drawn from patent US20230026271A1.

# Experimental Target: CPS1 (Homo sapiens, UniProt P31327)
# Construct: The full length, human CPS1 gene was cloned into pFastBac HTA; His6 (from the pFastBac HTA vector); made in house; host or cells: SF21 insect cells (baculovirus, Bac-to-bac)
# Sequence (P31327 39-1500): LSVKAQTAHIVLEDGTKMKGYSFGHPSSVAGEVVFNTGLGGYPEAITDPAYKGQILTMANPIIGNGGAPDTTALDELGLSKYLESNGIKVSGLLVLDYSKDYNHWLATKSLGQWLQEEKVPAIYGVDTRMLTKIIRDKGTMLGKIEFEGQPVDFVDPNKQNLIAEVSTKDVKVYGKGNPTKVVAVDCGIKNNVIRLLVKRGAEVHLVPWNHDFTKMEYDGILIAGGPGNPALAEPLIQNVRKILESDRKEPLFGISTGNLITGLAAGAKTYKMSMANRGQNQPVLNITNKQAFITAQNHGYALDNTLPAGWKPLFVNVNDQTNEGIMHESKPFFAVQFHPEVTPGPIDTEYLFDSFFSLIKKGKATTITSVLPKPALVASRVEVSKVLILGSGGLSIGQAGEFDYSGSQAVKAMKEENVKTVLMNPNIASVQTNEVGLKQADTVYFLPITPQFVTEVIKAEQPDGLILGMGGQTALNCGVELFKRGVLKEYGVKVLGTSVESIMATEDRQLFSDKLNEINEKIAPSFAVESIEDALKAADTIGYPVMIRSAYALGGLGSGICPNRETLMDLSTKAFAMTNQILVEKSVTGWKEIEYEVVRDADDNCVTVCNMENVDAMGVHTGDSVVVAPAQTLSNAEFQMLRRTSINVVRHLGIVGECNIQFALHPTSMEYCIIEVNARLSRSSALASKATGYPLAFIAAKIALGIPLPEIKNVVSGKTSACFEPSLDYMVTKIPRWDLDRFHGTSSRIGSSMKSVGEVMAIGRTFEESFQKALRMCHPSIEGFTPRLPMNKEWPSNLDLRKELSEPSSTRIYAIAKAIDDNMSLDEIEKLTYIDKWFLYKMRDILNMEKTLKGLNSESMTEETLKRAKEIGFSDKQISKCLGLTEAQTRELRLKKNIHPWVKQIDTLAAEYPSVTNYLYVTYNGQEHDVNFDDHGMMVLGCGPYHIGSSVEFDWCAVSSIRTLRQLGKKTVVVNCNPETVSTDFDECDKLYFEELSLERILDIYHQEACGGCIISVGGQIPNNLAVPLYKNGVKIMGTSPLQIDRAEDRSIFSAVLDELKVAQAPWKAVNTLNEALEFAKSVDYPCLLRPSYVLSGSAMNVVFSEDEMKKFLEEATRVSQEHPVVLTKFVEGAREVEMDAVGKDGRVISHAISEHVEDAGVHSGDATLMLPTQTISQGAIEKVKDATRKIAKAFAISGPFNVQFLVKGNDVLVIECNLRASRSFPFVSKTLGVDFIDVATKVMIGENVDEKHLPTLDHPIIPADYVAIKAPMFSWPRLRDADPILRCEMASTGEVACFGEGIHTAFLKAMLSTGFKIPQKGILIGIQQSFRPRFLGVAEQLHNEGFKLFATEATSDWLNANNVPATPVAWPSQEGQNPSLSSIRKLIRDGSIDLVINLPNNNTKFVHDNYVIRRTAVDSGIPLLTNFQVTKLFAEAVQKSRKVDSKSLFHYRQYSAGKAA
# Run Description: ADP-Glo endpoint assay measuring the ATPase activity of CPS1
# Assay type: biochemical
# Setup Conditions: geometric mean of a minimum of two values; 50 nM CPS1, 10 μM ATP, 0.2 mM NAG, 60 min at room temperature; read-out: ADPGlo IC50
Listing of recorded pIC50 by entry.
Formally, pIC50 is defined as -log10 of the concentration c, with c in mol/L.

// worked examples, pIC50 included
• COc1ccc(C(=O)N2[C@H](C)CN(C(=O)c3c(F)cc(OC)cc3F)C[C@H]2C)c(F)c1 = 6.38
• COc1ccc(C(=O)N2[C@H](C)CN(C(=O)c3ccc4cc[nH]c4c3)C[C@H]2C)c(F)c1 = 6.90
• COc1ccc(C(=O)N2C[C@@H](C)N(C(=O)c3ccc(C)c(O)c3)[C@H](C)C2)c(F)c1 = 5.06
• COc1ccc(OC)c2[nH]c(C(=O)N3CCN(C(=O)Cc4c[nH]c5ccccc45)CC3)cc12 = 5.43
• COc1ccc(C(=O)N2CCN(C(=O)c3ccc(OC)cc3F)C(C)C2)c(F)c1 (centres unmarked) = 5.28

Request: Consider the compound shown here: COc1ccc(C(=O)N2C[C@@H](C)N(C(=O)c3ccc(-n4cnnn4)cc3)[C@H](C)C2)c(F)c1 What is its recorded pIC50?
Response: 4.98

Request: Consider the compound shown here: COc1ccc(C(=O)N2CCN(C(=O)c3ccc(OC)cc3F)CC2)c(F)c1 What is its recorded pIC50?
Response: 5.11

Request: Consider the compound shown here: COc1ccc(C(=O)N2C[C@@H](C)N(C(=O)c3ccc(OC)cc3F)[C@H](C)C2)c(F)c1 What is its recorded pIC50?
Response: 6.44

Request: Consider the compound shown here: COc1ccc(C(=O)N2[C@H](C)CN(C(=O)c3ccc4c[nH]nc4c3)C[C@H]2C)c(F)c1 What is its recorded pIC50?
Response: 6.15
